- System: Human primary T cells
- Test Summary: IL-2 ELISA, human primary T cell, anti-CD3+CD28+ (whole cell assay)
- Type: cell-based
- Condition Parameters: Homo sapiens, T-cell, 24 h, human primary T cells stimulated with anti-CD3 + anti-CD28, 24 hours
Examples of molecules with documented IC50 follow.

Example entries and their recorded answers appear below.
Molecule: CC1CC(Nc2nc(Nc3cccc(-n4nnnc4SCC(F)(F)F)c3)ncc2F)CC(C)N1C1CC1 (stereo not shown)
IC50: 250 to 500 nM
//
Molecule: [2H]C([2H])([2H])N1C(C)(C)CC(Nc2nc(Nc3ccc(OC4CCN(C(C)C)CC4)c(OC(F)F)c3)ncc2F)CC1(C)C
IC50: < 250 nM
//
Molecule: CC(C)n1nnnc1-c1cccc(Nc2ncc(F)c(NC3CC(C)(C)NC(C)(C)C3)n2)c1
IC50: 500 to 1000 nM

input: Look at this molecule and give its reported IC50. CC(C)Oc1ncc(Nc2ncc(C#N)c(NC3CC(C)(C)N(C)C(C)(C)C3)n2)cc1-c1nnnn1C(C)C
output: 500 to 1000 nM

input: Another molecule: CC(C)Oc1ncc(Nc2ncc(F)c(NC3CC(C)(C)NC(C)(C)C3)n2)cc1-c1nnnn1C
output: 250 to 500 nM

input: Another molecule: Cc1nnnn1-c1cc(Nc2ncc(F)c(NC3CC(C)(C)NC(C)(C)C3)n2)ccc1OC(F)(F)F
output: < 250 nM

input: Another molecule: COc1cc(Nc2ncc(F)c(NC3CC(C)N(C4CC4)C(C)C3)n2)cc(-n2cnnn2)c1 (stereo not shown)
output: < 250 nM

----------
Examples of compounds with documented IC50 follow.
- System: Human primary T cells
- Test Summary: IL-2 ELISA, human primary T cell, anti-CD3+CD28+ (whole cell assay)
- Format: cell-based
- Condition Parameters: Homo sapiens, T-cell, 24 h, human primary T cells stimulated with anti-CD3 + anti-CD28, 24 hours
- Experimental: Human primary T cells were prepared as follows. […] Human primary T cells (100,000 cells per well) were pre-incubated with or without test compound in Yssel's medium for 1 hr at 37° C. […] Cells were incubated at 37° C. for 24 hours before 100 μL supernatants were harvested for quantification of IL-2 by ELISA using Human IL-2 Duoset ELISA Kit from R and D Systems, Cat. #DY202E. […]

Example entries and their recorded answers appear below.
Molecule Smiles: CC1(C)CC(Nc2nc(Nc3ccc(OC4CCN(S(C)(=O)=O)CC4)c(F)c3)ncc2F)CC(C)(C)N1
Measured Quantity: IC50
Value Observed: > 1000 nM
//
Molecule Smiles: CC(C)Oc1ncc(Nc2ncc(C#N)c(NC3CC(C)(C)N(C)C(C)(C)C3)n2)cc1-c1nnnn1C1CC1
Measured Quantity: IC50
Value Observed: < 250 nM
//
Molecule Smiles: CC1(C)CC(Nc2nc(Nc3ccc(OCCn4ccnn4)c(OC(F)F)c3)ncc2F)CC(C)(C)N1
Measured Quantity: IC50
Value Observed: 500 to 1000 nM

Now for a further compound.
input: Look at this compound and give its reported IC50. CN1C(C)(C)CC(Nc2nc(Nc3ccc(OC4CCN(S(C)(=O)=O)CC4)c(F)c3)ncc2F)CC1(C)C
output: > 1000 nM

----------
- System: Human primary T cells
- Test Summary: IL-2 ELISA, human primary T cell, anti-CD3+CD28+ (whole cell assay)
- Type: cell-based
- Condition Parameters: Homo sapiens, T-cell, 24 h, human primary T cells stimulated with anti-CD3 + anti-CD28, 24 hours
pIC50: −log10 of the molar value.
Measured Quantity: pIC50

Compound: CC1(C)CC(Nc2nc(Nc3ccc4c(c3)OC(C)(C)C(=O)N4CCF)ncc2F)CC(C)(C)N1
Value Observed: > 6.60
//
Compound: Cc1ccc(C)n1-c1cc(Nc2ncc(F)c(NC3CC(C)(C)N(C)C(C)(C)C3)n2)cnc1OC(C)C
Value Observed: 6.00 to 6.30
//
Compound: CC(C)Oc1ncc(Nc2ncc(F)c(NC3CC(C)(C)NC(C)(C)C3)n2)cc1-c1nnnn1C1CC1
Value Observed: 6.00 to 6.30

input: Look at this compound and give its reported pIC50. CC(C)Oc1ncc(Nc2ncc(C#N)c(NC3CC(C)(C)NC(C)(C)C3)n2)cc1-c1nnnn1C1CC1
output: 6.30 to 6.60

input: Another compound: [2H]C([2H])([2H])N1C(C)(C)CC(Nc2nc(Nc3ccc(C)c(-n4cnnn4)c3)ncc2F)CC1(C)C
output: > 6.60

input: Another compound: [2H]C([2H])([2H])N1C(C)(C)CC(Nc2nc(Nc3ccc(OC4CCN(C(C)C)CC4)c(Cl)c3)ncc2F)CC1(C)C
output: > 6.60

input: Another compound: CC(C)N1CCCC(Oc2ccc(Nc3ncc(F)c(NC4CC(C)(C)N(C)C(C)(C)C4)n3)cc2OC(F)F)CC1 (stereo not shown)
output: > 6.60
